# test-description: Peptide stability in simulated gastric fluid (SGF)
# Type: in vitro ADME
# measurement-parameters: pig, 4 h, pH 1.2, pepsin, 37° C.
# Description: SGF and SIF were prepared based on the United States Pharmacopeia specifications (Test Solutions, United States Pharmacopeia 35, NF 30, 2012). SGF was prepared by dissolving sodium chloride (0.2 g) in 50 mL of water. A volume of 0.7 mL of 10 M HCl was added to adjust the pH of the solution to 1.2 and the volume made up to 100 mL with water. 64 mg porcine pepsin (P7125, Sigma Aldrich) was gently dissolved into 20 mL preheated (37° C.) solution (3.2 g/L) immediately prior to the incubation. […]
*1 amine or outer side, *2 acyl side, *3 side chain or, on linkers, in order; H or OH if unused. Where a SMILES comes first, the peptide text is derived from it. Bridges are numbered along the chain shown (N, C = ends). [ ]: non-standard residue; d: D form. 2Nal = N[C@@H](Cc1ccc2ccccc2c1)C(=O)O; AEF = NCCOc1ccc(C[C@H](N)C(=O)O)cc1; X1 = O=C(Cc1ccc(CN[*:1])cc1)[*:2]; 3Pal = N[C@@H](Cc1cccnc1)C(=O)O; Cit = NC(=O)NCCC[C@H](N)C(=O)O; αMeL = CC(C)C[C@](C)(N)C(=O)O; Dab = NCC[C@H](N)C(=O)O
Answer each item with its documented remaining at 4 h, 10 µM.
One number for each entry, in %.

Some compounds with known remaining at 4 h, 10 µM results, for comparison:
[[record]]
compound = "CNC(=O)[C@H](Cc1cccnc1)NC(=O)[C@H](CCN)NC(=O)[C@@H]1CCC(=O)NCc2ccc(cc2)CC(=O)N[C@@H](C)C(=O)N[C@H]2CCC(=O)NCC[C@H](NC(=O)[C@H](CCC(N)=O)NC(=O)[C@H](Cc3c[nH]c4ccccc34)NC2=O)C(=O)N[C@@H](Cc2ccc(OCCN)cc2)C(=O)N[C@@H](Cc2ccc3ccccc3c2)C(=O)N[C@@](C)(CC(C)C)C(=O)N1"
measured = 103

[[record]]
compound = "CNC(=O)[C@H](Cc1cccnc1)NC(=O)[C@H](CCN)NC(=O)[C@@H]1CCC(=O)NCc2ccc(cc2)CC(=O)N[C@@H](CO)C(=O)N[C@H]2CCC(=O)NCC[C@H](NC(=O)[C@H](CCCCNC(C)=O)NC(=O)[C@H](Cc3c[nH]c4ccccc34)NC2=O)C(=O)N[C@@H](Cc2ccc(OCCN)cc2)C(=O)N[C@@H](Cc2ccc3ccccc3c2)C(=O)N[C@@](C)(CC(C)C)C(=O)N1 [Compound 24] ([X1]SEWK(Ac)[Dab][AEF][2Nal][αMeL]E[Dab][3Pal]-NHMe; lactam 3-6, N-10)"
measured = 90

[[record]]
compound = "CC(C)C[C@]1(C)NC(=O)[C@H](Cc2ccc3ccccc3c2)NC(=O)[C@H](Cc2ccc(OCCN)cc2)NC(=O)[C@@H]2CCNC(=O)CC[C@H](NC(=O)[C@H](CO)NC(=O)Cc3ccc(cc3)CNC(=O)CC[C@@H](C(=O)N[C@@H](CCN)C(=O)NCCCCc3cccnc3)NC1=O)C(=O)N[C@@H](Cc1c[nH]c3ccccc13)C(=O)N[C@@H](CCC(N)=O)C(=O)N2"
measured = 108

[[record]]
compound = "CNC(=O)[C@H](Cc1cccnc1)NC(=O)[C@H](CO)NC(=O)[C@@H]1CCC(=O)NCc2ccc(cc2)CC(=O)N[C@@H](C)C(=O)N[C@H]2CCC(=O)NCC[C@H](NC(=O)[C@H](CCC(N)=O)NC(=O)[C@H](Cc3c[nH]c4ccccc34)NC2=O)C(=O)N[C@@H](Cc2ccc(OCCN)cc2)C(=O)N[C@@H](Cc2ccc3ccccc3c2)C(=O)N[C@@](C)(CC(C)C)C(=O)N1 [Compound 40] ([X1]AEWQ[Dab][AEF][2Nal][αMeL]ES[3Pal]-NHMe; lactam 3-6, N-10)"
measured = 89

[[record]]
compound = "CNC(=O)[C@H](Cc1cccnc1)NC(=O)[C@H](CCN)NC(=O)[C@@H]1CCC(=O)NCc2ccc(cc2)CC(=O)N[C@@H](C)C(=O)N[C@H]2CCC(=O)NCC[C@H](NC(=O)[C@H](CCC(N)=O)NC(=O)[C@H](Cc3c[nH]c4ccccc34)NC2=O)C(=O)N[C@@H](Cc2c[nH]c3c(F)cccc23)C(=O)N[C@@H](Cc2ccc3ccccc3c2)C(=O)NC(C)(C)C(=O)N1"
measured = 85

[[record]]
compound = "CNC(=O)[C@H](Cc1cccnc1)NC(=O)[C@H](CCN)NC(=O)[C@@H]1CCC(=O)NCc2ccc(cc2)CC(=O)N[C@@H](CO)C(=O)N[C@H]2CCC(=O)NCC[C@H](NC(=O)[C@H](CCCNC(N)=O)NC(=O)[C@H](Cc3c[nH]c4ccccc34)NC2=O)C(=O)N[C@@H](Cc2ccc(OCCN)cc2)C(=O)N[C@@H](Cc2ccc3ccccc3c2)C(=O)N[C@@](C)(CC(C)C)C(=O)N1 [Compound 26] ([X1]SEW[Cit][Dab][AEF][2Nal][αMeL]E[Dab][3Pal]-NHMe; lactam 3-6, N-10)"
measured = 99


For each of the items listed, what is its remaining at 4 h, 10 µM?
1. CNC(=O)[C@H](Cc1cccnc1)NC(=O)[C@H](CCN)NC(=O)[C@@H]1CCC(=O)NCc2ccc(cc2)CC(=O)N[C@@H](Cc2ccccc2)C(=O)N[C@H]2CCC(=O)NCC[C@H](NC(=O)[C@H](CCC(N)=O)NC(=O)[C@H](Cc3c[nH]c4ccccc34)NC2=O)C(=O)N[C@@H](Cc2ccc(OCCN)cc2)C(=O)N[C@@H](Cc2ccc3ccccc3c2)C(=O)N[C@@](C)(CC(C)C)C(=O)N1 [Compound 21] ([X1]FEWQ[Dab][AEF][2Nal][αMeL]E[Dab][3Pal]-NHMe; lactam 3-6, N-10)
2. CNC(=O)[C@H](Cc1cccnc1)NC(=O)[C@](C)(CO)NC(=O)[C@@H]1CCC(=O)NCc2ccc(cc2)CC(=O)N[C@@H](CO)C(=O)N[C@H]2CCC(=O)NCC[C@H](NC(=O)[C@H](CCC(N)=O)NC(=O)[C@H](Cc3c[nH]c4ccccc34)NC2=O)C(=O)N[C@@H](Cc2ccc(OCCN)cc2)C(=O)N[C@@H](Cc2ccc3ccccc3c2)C(=O)N[C@@](C)(CC(C)C)C(=O)N1
3. CC(C)C[C@]1(C)NC(=O)[C@H](Cc2ccc3ccccc3c2)NC(=O)[C@H](Cc2ccc(OCCN)cc2)NC(=O)[C@@H]2CCNC(=O)CC[C@H](NC(=O)[C@H](CO)NC(=O)Cc3ccc(cc3)CNC(=O)CC[C@@H](C(=O)N[C@@H](CCN)C(=O)N[C@@](C)(Cc3cccnc3)C(N)=O)NC1=O)C(=O)N[C@@H](Cc1c[nH]c3ccccc13)C(=O)N[C@@H](CCC(N)=O)C(=O)N2
4. CCCC[C@H](NC(=O)[C@@H]1CCC(=O)NCc2ccc(cc2)CC(=O)N[C@@H](CO)C(=O)N[C@H]2CCC(=O)NCC[C@H](NC(=O)[C@H](CCC(N)=O)NC(=O)[C@H](Cc3c[nH]c4ccccc34)NC2=O)C(=O)N[C@@H](Cc2ccc(OCCN)cc2)C(=O)N[C@@H](Cc2ccc3ccccc3c2)C(=O)N[C@@](C)(CC(C)C)C(=O)N1)C(=O)N[C@@H](Cc1cccnc1)C(=O)NC

101
96
104
90
